Catalogue of inhibition values
Organism: Homo sapiens
assay.explanation: Inhibition of sodium channel (unknown origin) at 10 uM
endpoint.label: inhibition (%)

compound: CC(C)[C@@H](NC(=O)C1CCCC1)C(=O)N1CC[C@](O)(c2ccc(Cl)cc2)C(C)(C)C1
endpoint.label: inhibition
measurement.units: %
meas.value: 52
//
compound: CC(C)[C@@H](NC(=O)c1ccccc1)C(=O)N1CC[C@](O)(c2ccc(Cl)cc2)C(C)(C)C1
endpoint.label: inhibition
measurement.units: %
meas.value: 48
//
compound: CC(C)[C@@H](NC(=O)[C@@H]1CC[C@@H](O)C1)C(=O)N1CC[C@](O)(c2ccc(Cl)cc2)C(C)(C)C1 (mixture of isomers)
endpoint.label: inhibition
measurement.units: %
meas.value: 14
//
compound: CC(C)[C@@H](NC(=O)[C@@H]1CC[C@H](O)C1)C(=O)N1CC[C@](O)(c2ccc(Cl)cc2)C(C)(C)C1 (mixture of isomers)
endpoint.label: inhibition
measurement.units: %
meas.value: 5
